System: K-562 leukemia
protocolNotes: NCI tumour cell line growth inhibition, 48 h; in the data active = GI50 below about 0.43 µM; inactive = the rest
Classes used: active, inactive

>>> category("CNC(=O)c1c(NC(=O)c2ccc(C(C)(C)C)cc2)sc2c(CN(C)C)c(O)ccc12")
"active"
>>> category("Cc1csc2[n+]1-c1ccccc1N(C(=O)Nc1ccccc1)C(C)C2 (centres undefined)")
"inactive"
>>> category("O=C(Nc1cccc(O)c1)c1ccc(NC2=C(Cl)C(=O)N(Cc3ccc(Cl)cc3Cl)C2=O)cc1")
"inactive"
>>> category("COc1cc(Nc2ncc(-c3ccccc3)o2)cc(OC)c1")
"inactive"
>>> category("C[C@]12CC[C@H]3[C@@H](CC=C4C[C@@H](N5CCCC5)CC[C@@]43C)[C@@H]1C/C(=C\\c1cccc(OCCN3CCOCC3)c1)[C@@H]2O")
"inactive"
>>> category("COc1ncc(Nc2ncc([C@@H](C)N3CCN(S(C)(=O)=O)CC3)cc2-c2nc(C)nc(N)n2)cc1F")
"inactive"
>>> category("CC1=C(c2ccccc2)C(O)(c2ccccc2)C(C)C1=O (centres undefined)")
"inactive"
>>> category("O=C([CH-]C(=O)c1ccccc1)c1ccccc1.[CH-]1CCCCC1.[CH-]1CCCCC1.[CH-]1CCCCC1.[Sn+4]")
"inactive"
>>> category("COc1ccc2c(c1)nc(C(=O)c1ccco1)c(C(F)(F)F)[n+]2[O-]")
"inactive"
>>> category("CCC(C)Nc1ccc(N)cc1 (centres undefined)")
"inactive"
>>> category("COc1ccc(C/C(=C(\\C)c2ccc(OCCN3CCCC3)cc2)c2ccc(OCCN3CCCC3)cc2)cc1")
"inactive"
>>> category("CC(N)(Cc1c[nH]c2cccc(F)c12)C(=O)O (centres undefined)")
"inactive"
>>> category("NCCCC[C@@H]1NC(=O)[C@H](CC(=O)O)NC(=O)CNC(=O)[C@H](CCCN=C(N)N)NC(=O)[C@@H](N)CSSC[C@@H](C(=O)O)NC(=O)[C@H](CC(=O)O)NC(=O)[C@@H]2CCCN2C(=O)CNC1=O")
"inactive"
>>> category("COc1ccc2c(c1)c(-c1nc(-c3c[nH]c4ccncc34)cs1)cn2C")
"inactive"

###

Property: TGI; scope: individual compounds
Tested on: SK-OV-3 ovarian
protocolNotes: NCI tumour cell line growth inhibition, 48 h
measurementType: TGI

>>> reportedresult("C=C(NC(=O)C(=C)NC(=O)c1csc(C2=NC3c4csc(n4)C4NC(=O)c5csc(n5)C(C(C)(O)C(C)O)NC(=O)C5CSC(=N5)/C(=C/C)NC(=O)C(C(C)O)NC(=O)c5csc(n5)C3(CC2)NC(=O)C(C)NC(=O)C(=C)NC(=O)C(C)NC(=O)C(C(C)CC)NC2C=Cc3c(C(C)O)cc(nc3C2O)C(=O)OC4C)n1)C(N)=O (stereo not drawn)")
"> 67.8 µM"
>>> reportedresult("NNC(=S)NCCNC(=S)NN")
"> 100 µM"
>>> reportedresult("Cc1cc(S(=O)(=O)Nc2nc3ccccc3nc2-c2ccc(Cl)cc2)c(S)cc1Cl")
"31.1 µM"
>>> reportedresult("CCC(C)Nc1ccc(N)cc1 (stereo not drawn)")
"93.3 µM"
>>> reportedresult("CCOC(=O)NC(OC)(C(F)(F)F)C(F)(F)F")
"> 100 µM"
>>> reportedresult("Cc1cccc(C)c1NC(=O)C1=NC(=S)NC(c2ccccc2)C1c1nc2ccccc2s1 (stereo not drawn)")
"> 100 µM"
>>> reportedresult("COc1ccccc1NC(=O)CC(=O)N1N=C(N2c3ccccc3Sc3ccccc32)CC1c1ccccc1 (stereo not drawn)")
"> 100 µM"
>>> reportedresult("Cc1cccc(C2SCc3nc4ccccc4n32)c1 (stereo not drawn)")
"72.9 µM"
>>> reportedresult("NCCCC[C@@H]1NC(=O)[C@H](CC(=O)O)NC(=O)CNC(=O)[C@H](CCCN=C(N)N)NC(=O)[C@@H](N)CSSC[C@@H](C(=O)O)NC(=O)[C@H](CC(=O)O)NC(=O)[C@@H]2CCCN2C(=O)CNC1=O")
"> 100 µM"
>>> reportedresult("COc1ccc(Cc2coc3ccccc3c2=O)cc1OC")
"> 100 µM"
>>> reportedresult("Cc1cc(S(=O)(=O)Nc2nnc3cnc4ccccc4n23)c(S)cc1Cl")
"> 100 µM"
>>> reportedresult("O=C(CCCN1CCC(O)(c2ccc(Cl)cc2)CC1)c1ccc(F)cc1")
"> 100 µM"
>>> reportedresult("O=C1CC[C@@]2(O)[C@H]3Cc4ccc(-c5ccccc5)c5c4[C@@]2(CCN3CC2CC2)[C@H]1O5")
"54 µM"
>>> reportedresult("COC(=O)C1Cc2c(n(C)c3ccccc23)C(CCC(=O)O)N1Cc1ccccc1 (stereo not drawn)")
"> 100 µM"
>>> reportedresult("COC(=O)[C@H](Cc1cnc[nH]1)NC(=O)[C@@H](NC(=O)Nc1cc(C(F)(F)F)cc(C(F)(F)F)c1)C(C)C")
"32.5 µM"
>>> reportedresult("COc1cc(/C=N/Nc2ncnc3c2cnn3-c2ccccc2)ccc1O")
"> 25 µM"
>>> reportedresult("CSc1ccn(C2CC(F)C(CO)O2)c(=O)n1 (stereo not drawn)")
"> 100 µM"
>>> reportedresult("O=C(/C=C\\c1ccc([N+](=O)[O-])cc1)c1ccccc(=O)c1O")
"17.2 µM"
